assay: Pharmacokinetic analysis in blood of mice from the efficacy study; assay type: in vivo; settings: NOD-scid IL-2Rγnull, mouse, whole blood, po, 30 mg/kg, M5717 30 mg/kg single oral dose (entry 4), mean ± SD; read-out: M5717 exposure AUC0-inf
readout kind: AUC(0-inf) (µg·h/mL)
Field: numeric (µg·h/mL). Do not append units.

Req: Reported AUC(0-inf), compound O=C(NCCN1CCCC1)c1cc(-c2ccc(CN3CCOCC3)cc2)nc2ccc(F)cc12 [M5717] : ____
Resp: 16.9

* * *

Experiment: Pharmacokinetic analysis in blood of mice from the efficacy study
Type: in vivo
Settings: NOD-scid IL-2Rγnull, mouse, whole blood, po, 12 mg/kg, M5717 12 mg/kg single oral dose (entry 3), mean ± SD; read-out: M5717 exposure AUC0-inf
Procedure: The test compounds’ concentrations in blood were assessed in order to determine pharmacokinetic parameters in mice from the efficacy study. […] The extracts were analyzed by LC-MS/MS (quantification by HESI ionization in positive ion mode) performed at Swiss BioQuant AG (Switzerland). […] AUC0-t Area under the matrix concentration -time curve from 0 h to time t calculated using […] AUC0-∞ Area under the matrix concentration -time curve from 0 h to infinity calculated using […]
readout kind: AUC(0-inf) (ng·h/mL)
Field: numeric (ng·h/mL). Do not append units.

Req: Reported AUC(0-inf), compound O=C(NCCN1CCCC1)c1cc(-c2ccc(CN3CCOCC3)cc2)nc2ccc(F)cc12 : ____
Resp: 6160

* * *

experiment: Pharmacokinetic analysis in blood of mice from the efficacy study; assay type: in vivo; conditions: NOD-scid IL-2Rγnull, mouse, whole blood, po, 12 mg/kg, pyronaridine 12 mg/kg single oral dose (entry 6), mean ± SD; read-out: Pyronaridine exposure AUC0-inf
readout kind: AUC(0-inf)

Req: Reported AUC(0-inf), compound COc1ccc2nc3cc(Cl)ccc3c(Nc3cc(CN4CCCC4)c(O)c(CN4CCCC4)c3)c2n1 : ____
Resp: 14500 ng·h/mL

* * *

test: Pharmacokinetic analysis in blood of mice from the efficacy study; type: in vivo; conditions: NOD-scid IL-2Rγnull, mouse, whole blood, po, mice, administered alone, single oral dose; read-out: half-life (t1/2) (converted)
Recorded half-life values for a group of molecules are listed next.

>>> recorded_measurement("COc1ccc2nc3cc(Cl)ccc3c(Nc3cc(CN4CCCC4)c(O)c(CN4CCCC4)c3)c2n1")
"~74 h"

Now look at this entry.
Req: Reported half-life, molecule O=C(NCCN1CCCC1)c1cc(-c2ccc(CN3CCOCC3)cc2)nc2ccc(F)cc12 : ____
Resp: ~37 h

* * *

test: Pharmacokinetic analysis in blood of mice from the efficacy study; format: in vivo; settings: NOD-scid IL-2Rγnull, mouse, whole blood, po, 6 mg/kg, pyronaridine 6 mg/kg single oral dose (entry 5), mean ± SD; read-out: Pyronaridine exposure AUC0-inf
readout kind: AUC(0-inf) (ng·h/mL)
Field: numeric (ng·h/mL). Do not append units.

Req: Reported AUC(0-inf), molecule COc1ccc2nc3cc(Cl)ccc3c(Nc3cc(CN4CCCC4)c(O)c(CN4CCCC4)c3)c2n1 : ____
Resp: 6560

* * *

experiment: Pharmacokinetic analysis in blood of mice from the efficacy study; type: in vivo; details: NOD-scid IL-2Rγnull, mouse, whole blood, po, M5717 12 mg/kg + pyronaridine 6 mg/kg single oral dose (entry 9), mean ± SD; read-out: M5717 exposure AUC0-inf
readout kind: AUC(0-inf) (ng·h/mL)
Field: numeric (ng·h/mL). Do not append units.

Req: Reported AUC(0-inf), compound O=C(NCCN1CCCC1)c1cc(-c2ccc(CN3CCOCC3)cc2)nc2ccc(F)cc12 [M5717] : ____
Resp: 6400
